All figures here come from the supplement of paper PMC9233669.

Give self-aminoacylation for every item shown.
# Tested on: biotinyl-Phe-oxazolone
# assay explanation: self-aminoacylation, catalytic enhancement (BFO) (fold over background); higher = more active; k-Seq, kA / k0A0; sequences stand for … in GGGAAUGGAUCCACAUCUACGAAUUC…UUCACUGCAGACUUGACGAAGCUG
Variants at the floor of the assay were thinned out.

For the sequence shown here, AUUACACUUGUCAUCGAGUGA [Fam2.1 aminoacylation ribozyme variant] , give the reported self-aminoacylation.
11.4

Fill in the blank: the reported self-aminoacylation of CCAUACUUAAAGCAAUCGGUC [Fam1B.1 aminoacylation ribozyme variant] is ____.
0.813

Please look up its self-aminoacylation: GUACUUCAAACAAUCGUUCUG [Fam1A.1 aminoacylation ribozyme variant]
2.04

Which self-aminoacylation is reported for this sequence? AUUAAGCUAGGUCAUCGGGUG [Fam2.2 aminoacylation ribozyme variant]
34.3

Request the reported self-aminoacylation associated with AUUUCUCUGGUCAUCGAGUGA [Fam2.1 aminoacylation ribozyme variant]
20.5

Please give the measured self-aminoacylation for this sequence: CGACUUCAAACAAUCCGUCUG [Fam1A.1 aminoacylation ribozyme variant]
2.5

Please report the recorded self-aminoacylation for GAACUUCAAACAAUCGGUCUG [Fam1A.1 aminoacylation ribozyme variant] .
65.3

What value of self-aminoacylation has been reported for the following sequence? AUUCACCUGGGUAAUCGGGUG [Fam2.2 aminoacylation ribozyme variant]
30.1

* * *

# Tested on: biotinyl-Trp-oxazolone
# assay explanation: self-aminoacylation, catalytic enhancement (BWO) (fold over background); higher = more active; k-Seq, kA / k0A0; sequences stand for … in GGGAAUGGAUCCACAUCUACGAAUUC…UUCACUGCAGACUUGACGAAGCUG
Fewer inactive variants are shown than the library holds.
Record form. Attribute: self-aminoacylation. Fill in for each entry.
The answer should be a number; do not append a unit.

What value of measured self-aminoacylation is listed for AUCCUUCAAACAAUCGGUCUG [Fam1A.1 aminoacylation ribozyme variant] ?
3.9

Using the record for AUUACGCUCGUCAUCGAGUGA [Fam2.1 aminoacylation ribozyme variant] , report its self-aminoacylation.
2.54

Data request, read-out self-aminoacylation, for CCACACUACAAGCAUUCGGUC [Fam1B.1 aminoacylation ribozyme variant]
2.04

Suppose we examine the sequence AUUGCCCUGGUCACCGAGUGA [Fam2.1 aminoacylation ribozyme variant] ; what self-aminoacylation value has been reported?
9.72

For the sequence shown here, AUGAGCCUGGUCAUCGAGUGA [Fam2.1 aminoacylation ribozyme variant] , give the reported self-aminoacylation.
6.33

* * *

# Tested on: biotinyl-Met-oxazolone
# assay explanation: self-aminoacylation, catalytic enhancement (BMO) (fold over background); higher = more active; k-Seq, kA / k0A0; sequences stand for … in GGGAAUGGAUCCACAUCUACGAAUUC…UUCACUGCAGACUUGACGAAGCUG
This sample holds only a part of the variants without activity.
Category | rule: reported self-aminoacylation within range, see LOW (below 2), MEDIUM (2 to below 5), HIGH (5 or more)

Just checking, what class would you give AUUCCCCUUGGUCAUCGGGUG [Fam2.2 aminoacylation ribozyme variant] here?
HIGH

Could you place AAACUUGCUAAUAGUCGCAAG [Fam3.1 aminoacylation ribozyme variant] in its proper category? Many thanks.
LOW

Lab log: AUUACCCUGGUCACAGAGUGA [Fam2.1 aminoacylation ribozyme variant] — assign self-aminoacylation category
HIGH

# bin lookup: classify AUUACCGUAGUCAUCGAGUGA [Fam2.1 aminoacylation ribozyme variant] by its self-aminoacylation
MEDIUM

Band of AUUCAUCUAGGUCAUCAGGUG [Fam2.2 aminoacylation ribozyme variant] ?
MEDIUM

The entry to classify is CUACACUUCAAGCAAUCAGUC [Fam1B.1 aminoacylation ribozyme variant] ; which class holds it?
LOW

Could you tell me which band AAGUUUGCUAAUAGUCGUGAG [Fam3.1 aminoacylation ribozyme variant] belongs to?
LOW

Categorize the following entry: AUUACGCUCGUCAUCGAGUGA [Fam2.1 aminoacylation ribozyme variant]
MEDIUM

Field: class (self-aminoacylation) — entry: ACUCACCUAGGUUAUCGGGUG [Fam2.2 aminoacylation ribozyme variant]
MEDIUM

* * *

# Tested on: biotinyl-Ile-oxazolone
# assay explanation: self-aminoacylation, catalytic enhancement (BIO) (fold over background); higher = more active; k-Seq, kA / k0A0; sequences stand for … in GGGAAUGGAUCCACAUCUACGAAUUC…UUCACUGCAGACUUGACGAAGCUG
Variants at the floor of the assay were thinned out.
Would you kindly list self-aminoacylation for each of these sequences?

Can you look up the measured self-aminoacylation of CCACACUUCACGCAACCGGUC [Fam1B.1 aminoacylation ribozyme variant] for me?
1.24

Request the reported self-aminoacylation associated with CCACACUUCGAGCAAGCGGUC [Fam1B.1 aminoacylation ribozyme variant]
0.864

Reported self-aminoacylation for CUACUUCAAAUAAGCGGUCUG [Fam1A.1 aminoacylation ribozyme variant] : what is it?
0.958

What does the data say about its self-aminoacylation? Entry: CCACACUUCAACCAAUCCGUC [Fam1B.1 aminoacylation ribozyme variant]
1.07

Item under review: AUUAUCCUGAUCAUCGAGUGA [Fam2.1 aminoacylation ribozyme variant] . Reported self-aminoacylation?
4.92

* * *

# Tested on: biotinyl-Trp-oxazolone
# assay explanation: self-aminoacylation, catalytic enhancement (BWO) (fold over background); higher = more active; k-Seq, kA / k0A0; sequences stand for … in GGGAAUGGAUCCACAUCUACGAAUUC…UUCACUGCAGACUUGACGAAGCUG
Variants at the floor of the assay were thinned out.
Classify by measured self-aminoacylation: y if it is equal to or exceeds 4, n if it is smaller.

Say whether UUUCAACUAGGUCAUCGGGUG [Fam2.2 aminoacylation ribozyme variant] shows self-aminoacylation of 4 or more.
y

Is self-aminoacylation for CUUACCCUGGUCAUCUAGUGA [Fam2.1 aminoacylation ribozyme variant] at or above 4?
y

Reported self-aminoacylation at or above 4? AAGCUUGCUAAUAGUCGCGAG [Fam3.1 aminoacylation ribozyme variant]
n

Entry CUACUUCAAACAAUCGGGAUG [Fam1A.1 aminoacylation ribozyme variant] : is its self-aminoacylation no less than 4?
y

Given the entry CAACACUUCAAGCAAUCGCUC [Fam1B.1 aminoacylation ribozyme variant] , answer whether its self-aminoacylation meets or surpasses 4.
n

self-aminoacylation >= 4 for AUUGCCCUAGUCAUCGAGUGA [Fam2.1 aminoacylation ribozyme variant] ?
y

Does the sequence CUUAACCUAGGUCAUCGGGUG [Fam2.2 aminoacylation ribozyme variant] have recorded self-aminoacylation that is 4 or more?
y

# bool: self-aminoacylation of AUUCAUCUAGGUCAUCGGGUG [Fam2.2 aminoacylation ribozyme variant] >= 4
y

# bool: self-aminoacylation of AAGUUUCCUAAUAGUCGUAAG [Fam3.1 aminoacylation ribozyme variant] >= 4
n

* * *

# System: biotinyl-Val-oxazolone
# assay explanation: self-aminoacylation, catalytic enhancement (BVO) (fold over background); higher = more active; k-Seq, kA / k0A0; sequences stand for … in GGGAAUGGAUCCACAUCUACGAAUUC…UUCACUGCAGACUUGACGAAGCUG
Variants at the floor of the assay were thinned out.
Answer each item with its documented self-aminoacylation.
Number, no unit, nothing else.

Field request: self-aminoacylation | item: CUACUUCAAACACUCGGACUG [Fam1A.1 aminoacylation ribozyme variant]
1.2

Recorded self-aminoacylation for CCAGACUUCAAGCAACCGGUC [Fam1B.1 aminoacylation ribozyme variant] , please?
1.36

Please look up its self-aminoacylation: CCACCCUUAAAGCAAUCGGUC [Fam1B.1 aminoacylation ribozyme variant]
1.18

Which self-aminoacylation reading was recorded for the sequence CCACACUUCAAACAAACGGUC [Fam1B.1 aminoacylation ribozyme variant] ?
0.697

* * *

# Tested on: biotinyl-Phe-oxazolone
# assay explanation: self-aminoacylation, catalytic enhancement (BFO) (fold over background); higher = more active; k-Seq, kA / k0A0; sequences stand for … in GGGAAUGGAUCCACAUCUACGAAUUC…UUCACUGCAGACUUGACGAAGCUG
Variants at the floor of the assay were thinned out.
Entries get a class label from measured self-aminoacylation. See ranges: class 1 (below 1), class 2 (1 to below 2), class 3 (2 or more)

Form field 'band' for AUUCACGUAGGUCAUCGGGUA [Fam2.2 aminoacylation ribozyme variant]
class 3

Please report the category associated with AUGUUUGCUAAUAGCCGCAAG [Fam3.1 aminoacylation ribozyme variant] , nothing else.
class 3

Band of CUACUUCAAACAAUCGCUCUC [Fam1A.1 aminoacylation ribozyme variant] ?
class 3

Sort into band: CCACACUGCAUGCAAUCGGUC [Fam1B.1 aminoacylation ribozyme variant]
class 1

Textbook exercise: identify the category of the sequence given here, AAUACCCUGCUCAUCGAGUGA [Fam2.1 aminoacylation ribozyme variant] , according to its measured value.
class 2

Band of AAGUUUGUUAAAAGUCGCAAG [Fam3.1 aminoacylation ribozyme variant] ?
class 3

Assign a category based on measured self-aminoacylation for CUCCAUCAAACAAUCGGUCUG [Fam1A.1 aminoacylation ribozyme variant] and give only the class name.
class 3

Could you place CCACACUUCAUGCAAUCGUUC [Fam1B.1 aminoacylation ribozyme variant] in its proper category? Many thanks.
class 1

Category lookup for the sequence AAGUUUUCUAAUAGUCGCCAG [Fam3.1 aminoacylation ribozyme variant]
class 3

Which category does the recorded self-aminoacylation put CUACUUCCAACAAUCCGUCUG [Fam1A.1 aminoacylation ribozyme variant] in?
class 1

Which self-aminoacylation category applies to AAGUUUGUUAAUAGUCGCAAA [Fam3.1 aminoacylation ribozyme variant] here?
class 3

Returns: class label. Input: AUUACCCUUGCCAUCGAGUGA [Fam2.1 aminoacylation ribozyme variant]
class 3

Class label required: CCACACUUCAAGGAAUCGGCC [Fam1B.1 aminoacylation ribozyme variant]
class 2

Dear colleague, I would appreciate it if you could identify the bin for AAGUUGGCUAAUUGUCGCAAG [Fam3.1 aminoacylation ribozyme variant] and reply at your convenience.
class 3

Which category does the recorded self-aminoacylation put AAGUUUGCUAAUAGUCGCAAA [Fam3.1 aminoacylation ribozyme variant] in?
class 3

Field: class (self-aminoacylation) — entry: CUACUUCUAACAAUCGGUCUU [Fam1A.1 aminoacylation ribozyme variant]
class 1

Any idea which band AUUACCCUGGUCAACGAGGGA [Fam2.1 aminoacylation ribozyme variant] is in?
class 2

Band for AAGUUUGCUAGUAGUCACAAG [Fam3.1 aminoacylation ribozyme variant] ?
class 2
